target: Poly [ADP-ribose] polymerase 1 (Homo sapiens); assay: Inhibition of recombinant human PARP-1 expressed in Escherichia coli BL21 (DE3) using sheared DNA as substrate in presence of biotinylated NAD after 1 hr by ELISA
MEASURED_ENDPOINT: log10(IC50) (log10 of the value in nM)
Parameter value (number): base-10 log of IC50 in nM.

CC(C)(C)OC(=O)N1CC[C@H](C(=O)Nc2cc(Cn3c(=O)[nH]c(=O)c4ccccc43)cnc2F)C1 | 1.60
CC(C)(C)OC(=O)N1CC[C@H](C(=O)Nc2cc(Cn3c(=O)[nH]c(=O)c4ccccc43)ccc2Cl)C1 | 0.79
CC(C)(C)OC(=O)N1CC[C@H](C(=O)Nc2cc(Cn3c(=O)[nH]c(=O)c4ccccc43)cnc2Cl)C1 | 2.37
O=C(Nc1cc(Cn2c(=O)[nH]c(=O)c3ccccc32)cnc1F)[C@H]1CCN(CC2CC2)C1 | 0.76
O=C(Nc1cc(Cn2c(=O)[nH]c(=O)c3ccccc32)cnc1F)[C@H]1CCN(C2CCC(F)(F)CC2)C1 | 1.91

Take each entry in turn and give its log10(IC50).
1. CC(C)(C)OC(=O)N1CC[C@H](C(=O)Nc2cc(Cn3c(=O)[nH]c(=O)c4ccccc43)ccc2Br)C1
2. O=C(Nc1cncc(Cn2c(=O)[nH]c(=O)c3ccccc32)c1)[C@H]1CCNC1
3. O=C(Nc1cc(Cn2c(=O)[nH]c(=O)c3ccccc32)cnc1F)[C@H]1CCN(CCC(F)(F)F)C1
4. O=C(Nc1cc(Cn2c(=O)[nH]c(=O)c3ccccc32)cnc1F)[C@H]1CCN(c2ccccc2)C1
5. O=C(Nc1cc(Cn2c(=O)[nH]c(=O)c3ccccc32)cnc1F)[C@H]1CCN(Cc2ccccc2)C1

# output
2.54
1.00
0.49
1.97
1.12

###

Field: Ratio IC50. Provide a value for each of the molecules that follow.
organism: Homo sapiens; test: Selectivity index, ratio of IC50 for recombinant human PARP-1 expressed in Escherichia coli BL21 (DE3) to IC50 for recombinant human PARP-2 expressed in Escherichia coli BL21 (DE3)

O=C(Nc1cncc(Cn2c(=O)[nH]c(=O)c3ccccc32)c1)[C@H]1CCNC1 | 0.04
CC(C)(C)OC(=O)N1CC[C@H](C(=O)Nc2cc(Cn3c(=O)[nH]c(=O)c4ccccc43)cnc2F)C1 | 4.6
CC(C)(C)OC(=O)N1CC[C@H](C(=O)Nc2cc(Cn3c(=O)[nH]c(=O)c4ccccc43)ccc2Br)C1 | 5.1
O=C(Nc1cc(Cn2c(=O)[nH]c(=O)c3ccccc32)cnc1F)[C@H]1CCN(Cc2ccccc2)C1 | 2.5
O=C(Nc1cc(Cn2c(=O)[nH]c(=O)c3ccccc32)cnc1F)[C@H]1CCN(CC2CC2)C1 | 1.6

Take each entry in turn and give its Ratio IC50.
1. O=C(Nc1cc(Cn2c(=O)[nH]c(=O)c3ccccc32)cnc1Cl)[C@H]1CCNC1
2. O=C(Nc1cc(Cn2c(=O)[nH]c(=O)c3ccccc32)cnc1F)[C@H]1CCN(C(=O)C2CC2)C1
3. CC(C)(C)OC(=O)N1CC[C@H](C(=O)Nc2cc(Cn3c(=O)[nH]c(=O)c4ccccc43)cnc2Cl)C1

# output
1. 4.4
2. 12
3. 19

###

target: Poly [ADP-ribose] polymerase 1 (Homo sapiens, UniProt P09874); assay: Inhibition of recombinant human PARP-1 expressed in Escherichia coli BL21 (DE3) using sheared DNA as substrate in presence of biotinylated NAD after 1 hr by ELISA
Sequence (P09874 whole entry): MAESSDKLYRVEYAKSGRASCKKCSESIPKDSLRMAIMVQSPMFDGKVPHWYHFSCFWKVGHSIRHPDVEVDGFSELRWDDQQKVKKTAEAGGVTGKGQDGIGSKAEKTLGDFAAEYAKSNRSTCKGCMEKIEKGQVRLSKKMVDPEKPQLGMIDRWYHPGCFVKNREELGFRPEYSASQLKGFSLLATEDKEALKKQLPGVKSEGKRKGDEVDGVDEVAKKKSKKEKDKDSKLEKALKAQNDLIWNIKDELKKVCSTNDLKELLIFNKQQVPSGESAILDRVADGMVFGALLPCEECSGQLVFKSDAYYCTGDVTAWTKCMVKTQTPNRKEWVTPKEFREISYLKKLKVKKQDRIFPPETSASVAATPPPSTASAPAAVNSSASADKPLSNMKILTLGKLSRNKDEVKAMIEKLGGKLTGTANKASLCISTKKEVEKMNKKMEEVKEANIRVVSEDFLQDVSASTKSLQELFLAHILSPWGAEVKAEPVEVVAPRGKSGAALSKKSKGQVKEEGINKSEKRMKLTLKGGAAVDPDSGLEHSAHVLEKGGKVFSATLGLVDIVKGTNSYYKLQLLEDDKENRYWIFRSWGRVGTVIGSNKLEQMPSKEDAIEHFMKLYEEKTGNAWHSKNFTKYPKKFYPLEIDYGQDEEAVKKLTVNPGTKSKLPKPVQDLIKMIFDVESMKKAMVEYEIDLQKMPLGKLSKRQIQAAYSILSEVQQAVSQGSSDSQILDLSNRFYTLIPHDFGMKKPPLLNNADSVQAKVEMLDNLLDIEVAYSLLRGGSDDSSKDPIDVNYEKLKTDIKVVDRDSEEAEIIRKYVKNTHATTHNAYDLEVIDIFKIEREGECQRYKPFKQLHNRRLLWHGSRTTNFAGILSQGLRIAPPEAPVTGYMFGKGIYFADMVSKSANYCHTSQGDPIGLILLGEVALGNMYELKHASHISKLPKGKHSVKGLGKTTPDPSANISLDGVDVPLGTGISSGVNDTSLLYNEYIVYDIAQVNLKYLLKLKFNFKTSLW
Field: pIC50. Provide a value for each of the compounds that follow.
One number for each entry, as −log10 of the molar value.

O=C(Nc1cc(Cn2c(=O)[nH]c(=O)c3ccccc32)cnc1F)[C@H]1CCN(C(=O)C2CC2)C1 | 7.27
O=C(Nc1cc(Cn2c(=O)[nH]c(=O)c3ccccc32)cnc1F)[C@H]1CCN(CC(F)(F)F)C1 | 6.33
O=C(Nc1cc(Cn2c(=O)[nH]c(=O)c3ccccc32)cnc1F)[C@H]1CCN(Cc2ccncc2)C1 | 7.21
O=C(Nc1cc(Cn2c(=O)[nH]c(=O)c3ccccc32)cnc1Cl)[C@H]1CCNC1 | 6.76

The compound identified as `O=C(Nc1cc(Cn2c(=O)[nH]c(=O)c3ccccc32)cnc1F)[C@H]1CCNC1` registered its pIC50 at 7.86

###

species on record: Homo sapiens; test: Selectivity index, ratio of IC50 for recombinant human PARP-1 expressed in Escherichia coli BL21 (DE3) to IC50 for recombinant human PARP-2 expressed in Escherichia coli BL21 (DE3)
Field: Ratio IC50. Provide a value for each of the compounds that follow.
Give bare numbers.

These solved cases illustrate the format of a correct answer.
CC(C)(C)OC(=O)N1CC[C@H](C(=O)Nc2cc(Cn3c(=O)[nH]c(=O)c4ccccc43)ccc2Cl)C1 | 0.7
O=C(Nc1cc(Cn2c(=O)[nH]c(=O)c3ccccc32)cnc1F)[C@H]1CCNC1 | 0.18
O=C(Nc1cc(Cn2c(=O)[nH]c(=O)c3ccccc32)cnc1F)[C@H]1CCN(C2CCC(F)(F)CC2)C1 | 6.8
O=C(Nc1cc(Cn2c(=O)[nH]c(=O)c3ccccc32)cnc1F)[C@H]1CCN(CCC(F)(F)F)C1 | 1
O=C(Nc1cc(Cn2c(=O)[nH]c(=O)c3ccccc32)cnc1F)[C@H]1CCN(Cc2ccncc2)C1 | 10.7

Take each entry in turn and give its Ratio IC50.
1. O=C(Nc1cc(Cn2c(=O)[nH]c(=O)c3ccccc32)cnc1F)[C@H]1CCN(CC(F)(F)F)C1
2. O=C(Nc1cc(Cn2c(=O)[nH]c(=O)c3ccccc32)cnc1F)[C@H]1CCN(c2ccccc2)C1

# output
[40.6, 22.8]

The compound identified as `O=C(Nc1cc(Cn2c(=O)[nH]c(=O)c3ccccc32)cnc1F)[C@H]1CCN(CCC2CC2)C1` registered its Ratio IC50 at 1.8

###

target: UniProt:Q9UGN5; assay: Inhibition of recombinant human PARP-2 expressed in Escherichia coli BL21 (DE3) using sheared DNA as substrate in presence of biotinylated NAD after 1 hr by ELISA
Sequence (Q9UGN5 whole entry): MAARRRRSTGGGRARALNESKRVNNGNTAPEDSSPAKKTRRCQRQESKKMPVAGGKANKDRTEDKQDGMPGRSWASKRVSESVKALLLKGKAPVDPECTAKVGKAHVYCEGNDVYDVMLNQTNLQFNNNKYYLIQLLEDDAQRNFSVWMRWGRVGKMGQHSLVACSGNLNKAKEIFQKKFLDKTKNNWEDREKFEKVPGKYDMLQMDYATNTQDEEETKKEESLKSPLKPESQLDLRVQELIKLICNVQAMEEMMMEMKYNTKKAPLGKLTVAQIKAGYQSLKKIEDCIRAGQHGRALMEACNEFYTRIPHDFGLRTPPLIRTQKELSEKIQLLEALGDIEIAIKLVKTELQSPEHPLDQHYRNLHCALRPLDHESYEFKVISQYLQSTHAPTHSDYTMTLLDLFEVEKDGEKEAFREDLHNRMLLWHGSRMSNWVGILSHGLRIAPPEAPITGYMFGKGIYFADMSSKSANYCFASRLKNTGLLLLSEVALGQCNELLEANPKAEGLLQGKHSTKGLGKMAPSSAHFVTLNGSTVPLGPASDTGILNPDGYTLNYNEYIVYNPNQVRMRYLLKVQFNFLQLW
pIC50: −log10 of the molar value.
Tick 1 (yes) if pIC50 is 8 or greater. Tick 0 (no) if pIC50 is less than 8.

# input Can `O=C(Nc1cncc(Cn2c(=O)[nH]c(=O)c3ccccc32)c1)[C@H]1CCNC1` be said to have pIC50 at or above 8?
# output 0 (no)

# input Can `CC(C)(C)OC(=O)N1CC[C@H](C(=O)Nc2cc(Cn3c(=O)[nH]c(=O)c4ccccc43)ccc2N)C1` be said to have pIC50 at or above 8?
# output 0 (no)

# input Can `O=C(Nc1cc(Cn2c(=O)[nH]c(=O)c3ccccc32)cnc1F)[C@H]1CCN(CC2CC2)C1` be said to have pIC50 at or above 8?
# output 1 (yes)

# input Can `O=C(Nc1cc(Cn2c(=O)[nH]c(=O)c3ccccc32)cnc1F)[C@H]1CCN(c2ccccc2)C1` be said to have pIC50 at or above 8?
# output 1 (yes)

# input Can `O=C(Nc1cc(Cn2c(=O)[nH]c(=O)c3ccccc32)ccc1[N+](=O)[O-])[C@H]1CCNC1` be said to have pIC50 at or above 8?
# output 0 (no)

# input Can `O=C(Nc1cc(Cn2c(=O)[nH]c(=O)c3ccccc32)cnc1F)[C@H]1CCN(Cc2ccccc2)C1` be said to have pIC50 at or above 8?
# output 1 (yes)

# input Can `O=C(Nc1cc(Cn2c(=O)[nH]c(=O)c3ccccc32)cnc1F)[C@H]1CCN(CCC(F)(F)F)C1` be said to have pIC50 at or above 8?
# output 1 (yes)

# input Can `CC(C)(C)OC(=O)N1CC[C@H](C(=O)Nc2cc(Cn3c(=O)[nH]c(=O)c4ccccc43)ccc2Br)C1` be said to have pIC50 at or above 8?
# output 0 (no)

# input Can `CC(C)(C)OC(=O)N1CC[C@H](C(=O)Nc2cc(Cn3c(=O)[nH]c(=O)c4ccccc43)cnc2Br)C1` be said to have pIC50 at or above 8?
# output 0 (no)

# input Can `O=C(Nc1cc(Cn2c(=O)[nH]c(=O)c3ccccc32)cnc1Br)[C@H]1CCNC1` be said to have pIC50 at or above 8?
# output 0 (no)

# input Can `O=C(Nc1cc(Cn2c(=O)[nH]c(=O)c3ccccc32)cnc1F)[C@H]1CCNC1` be said to have pIC50 at or above 8?
# output 0 (no)

# input Can `O=C(Nc1cc(Cn2c(=O)[nH]c(=O)c3ccccc32)ccc1Br)[C@H]1CCNC1` be said to have pIC50 at or above 8?
# output 0 (no)

###

Field: pIC50. Provide a value for each of the compounds that follow.
molecular target: Poly [ADP-ribose] polymerase 1 (Homo sapiens); test: Inhibition of recombinant human PARP-1 expressed in Escherichia coli BL21 (DE3) using sheared DNA as substrate in presence of biotinylated NAD after 1 hr by ELISA
pIC50: −log10 of the molar value.

O=C(Nc1cc(Cn2c(=O)[nH]c(=O)c3ccccc32)cnc1F)[C@H]1CCN(CCC2CC2)C1 | 8.85
O=C(Nc1cc(Cn2c(=O)[nH]c(=O)c3ccccc32)ccc1[N+](=O)[O-])[C@H]1CCNC1 | < 7.00
CC(C)(C)OC(=O)N1CC[C@H](C(=O)Nc2cc(Cn3c(=O)[nH]c(=O)c4ccccc43)ccc2O)C1 | < 7.00

Turning now to a further compound:
The compound identified as `CC(C)(C)OC(=O)N1CC[C@H](C(=O)Nc2cc(Cn3c(=O)[nH]c(=O)c4ccccc43)cnc2Br)C1` registered its pIC50 at < 7.00
